tested on: OVCAR-3; test: NCI tumour cell line growth inhibition, 48 h
Activity calls are given as the source filed them. Cut-off read from the data, not from the text of the source: active = GI50 up to about 1.1 µM and inactive = higher.

molecule	target.or.system	GI50
COc1c(C)c(O)c2c(c1C)OC(c1ccccc1)CC2=O (stereo not drawn)	OVCAR-3	> 100 µM (inactive)
CC(=O)c1c2c(cc3c1CC1(Cc4cc5c(cc4C1)C(=O)CCC5)C3)CCCC2 (stereo not drawn)	OVCAR-3	7.59 µM (inactive)
O=c1c2cc([N+](=O)[O-])ccc2[nH]n1Cc1ccccc1Cl	OVCAR-3	> 100 µM (inactive)

###

test system: RXF 393; test: NCI tumour cell line growth inhibition, 48 h
The source made the active and inactive calls. Cut-off read from the data, not from the text of the source: active = GI50 up to about 1.1 µM and inactive = higher. Square brackets hold non-standard residues; d marks the D form. Peptide text beside a SMILES is read from it. pGlu = O=C1CC[C@@H](C(=O)O)N1; Thz = O=C(O)[C@@H]1CSCN1
Outcomes: active, inactive

compound	target.or.system	class
O=c1/c(=C/c2ccccc2[N+](=O)[O-])sc2nnc(-c3ccco3)n12	RXF 393	inactive
Cc1c2c(c(O)c3c(O)cccc13)C(=O)C1(O)C(=O)C(C(=O)NCNc3ccc(C(N)=O)cn3)=C(O)C(N(C)C)C1C2 (stereo unspecified)	RXF 393	inactive
N#CCN(Cc1ccccc1)[C@H]1CCC[C@]1(O)/C=C/c1ccc2c(c1)OCO2	RXF 393	inactive
CC(=O)NNc1nc(C)c(C(/C=C/c2ccc([N+](=O)[O-])cc2)=N/N)s1	RXF 393	inactive
CCCCSC1CCSc2c1ccc1ccccc21 (stereo unspecified)	RXF 393	inactive
c1ccc(C(=NNc2nc3ccccc3o2)c2ccccn2)nc1	RXF 393	active
N#Cc1ccccc1Nc1ccccc1S	RXF 393	inactive
O=C(Nc1ccccc1[N+](=O)[O-])c1ccccc1	RXF 393	inactive
C[C@]12OC(=O)[C@]3(O)CC[C@H]4[C@@H](C[C@@H](O)[C@@]5(Cl)CC=CC(=O)[C@]45C)[C@]45OCC6C(=O)O[C@@H]1C[C@@]6(C)[C@H](C4=O)[C@@]32O5 (stereo partly specified)	RXF 393	active
CC(O)CCC(=O)c1ccoc1 (stereo unspecified)	RXF 393	inactive
CN(C)C(=O)NCCN1CCCCCc2ccccc21	RXF 393	inactive
CCOC(=O)c1ccc2nc(NC(=O)COC(=O)CSc3nc(C)cc(C)n3)sc2c1	RXF 393	inactive
N#Cc1c(N)nc2[nH]nc(N)c2c1-c1ccc(Cl)cc1	RXF 393	inactive
Cc1ccc(-c2nc3cc([N+](=O)[O-])ccc3[nH]2)cc1	RXF 393	inactive
O=C(NCCCl)SCCO	RXF 393	inactive
O=C(NNC(=S)Nc1ccccc1)C12CC3CC(CC(C3)C1)C2	RXF 393	inactive
CCOC(=O)/C=C/n1c2ccccc2c(=O)c2ccccc21	RXF 393	inactive
COc1ccc(C2=NNC(=O)c3ccccc3N2c2nc(-c3cccs3)nc3ccc(Br)cc23)cc1	RXF 393	inactive
O=C1CC[C@@H](C(=O)N2CSC[C@H]2C(=O)O)N1 [PIDOTIMOD] ([pGlu]-[Thz]-OH)	RXF 393	inactive
CCn1c(-c2ccccc2)nc2c1C(=O)c1ccccc1C2=O	RXF 393	inactive
CCCCCCCCCCCCCCCCCCOCC1(COP(=O)([O-])OCC[N+](C)(C)C)CCCO1 (stereo unspecified)	RXF 393	active
